Recorded measurements of pEC50, one per entry
# system_name: PqsR (Pseudomonas aeruginosa, UniProt Q9I4X0)
# Sequence (Q9I4X0 whole entry): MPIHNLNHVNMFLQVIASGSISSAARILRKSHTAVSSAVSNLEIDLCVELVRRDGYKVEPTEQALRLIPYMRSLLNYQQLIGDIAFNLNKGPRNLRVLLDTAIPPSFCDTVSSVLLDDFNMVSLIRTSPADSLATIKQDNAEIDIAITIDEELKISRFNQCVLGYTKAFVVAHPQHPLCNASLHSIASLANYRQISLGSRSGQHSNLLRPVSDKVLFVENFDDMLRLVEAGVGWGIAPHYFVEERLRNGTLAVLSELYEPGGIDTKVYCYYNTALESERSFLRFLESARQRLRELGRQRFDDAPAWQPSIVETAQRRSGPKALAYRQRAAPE
# experimental_details: cell-based
# Set-up: assayed for their agonist and antagonist activities in a whole P. aeruginosa bacterial cell assay; endogenous in cells; host or cells: P. aeruginosa PAO1 wild type, ΔpqsA or ΔpqsAH strains carrying a chromosomal (mini)CTX::pqsA'-lux fusion
# condition_info: Figure 2 (AQs); P. aeruginosa ΔpqsAH CTX::pqsA'-lux strain; read-out: Agonist EC50 ±SD
pEC50: −log10 of the molar value.

compound: CCCCCCCc1[nH]c2ccccc2c(=O)c1O [compound 1, 2-heptyl-3-hydroxy-4(1H)-quinolone]
system_name: PqsR (Pseudomonas aeruginosa, UniProt Q9I4X0)
pEC50: 5.42
//
compound: CCCCCCCCCc1[nH]c2ccccc2c(=O)c1O [compound 4, 2-nonyl-3-hydroxy-4(1H)-quinolone]
system_name: PqsR (Pseudomonas aeruginosa, UniProt Q9I4X0)
pEC50: 5.04
//
compound: CCCCCCCCCc1cc(O)c2ccccc2n1 [compound 3, 2-nonyl-4-hydroxyquinoline]
system_name: PqsR (Pseudomonas aeruginosa, UniProt Q9I4X0)
pEC50: 5.60
//
compound: CCCCCCCc1cc(O)c2ccccc2n1 [compound 2, 2-heptyl-4-hydroxyquinoline]
system_name: PqsR (Pseudomonas aeruginosa, UniProt Q9I4X0)
pEC50: 4.79

Hello, the source for this data is paper PMC3723537, in case you need it.
